# Test system: HOP-92
# assay.text: Cytotoxicity against human HOP92 cells assessed as growth at 10 uM after 48 hrs by sulforhodamine B assay
# Type: functional
# measurement.conditions: HOP-92, 48 h, read-out: Activity
measured.parameter: growth at 10 µM (%)
Write the answer as a number in %, unit excluded.

Cc1cc(=O)n2nnc3cc(C(F)(F)F)ccc3n12 94

Challenge: Which growth at 10 µM value is on record for Cc1cc(=O)n2nnc3cc(Cl)c(Cl)cc3n12 ?
Response given: 101

Challenge: What would you report for Cc1cc(=O)n2nnc3cc(C#N)ccc3n12 ?
Response given: 103

Challenge: What about Cc1cc2nnn3c(=O)cc(C)n3c2cc1C ?
Response given: 93

###

# Tested on: MOLT-4
# assay.text: Cytotoxicity against human MOLT4 cells assessed as growth at 10 uM after 48 hrs by sulforhodamine B assay
# Assay type: functional
# measurement.conditions: MOLT-4, 48 h, read-out: Activity
measured.parameter: growth at 10 µM (%)
Write the answer as a number in %, unit excluded.

The examples below pair each entry with its known result.
Cc1cc(=O)n2nnc3cc(C(F)(F)F)ccc3n12 91
Cc1cc(=O)n2nnc3cc(C#N)ccc3n12 95
Cc1cc(=O)n2nnc3cc(Cl)c(Cl)cc3n12 59

Now for a further compound.
Challenge: Give the measured growth at 10 µM of Cc1cc2nnn3c(=O)cc(C)n3c2cc1C .
Response given: 82

###

# Test system: MCF7
# assay.text: Cytotoxicity against human MCF7 cells after overnight incubation by MTT assay
# Format: functional, cell-based
measured.parameter: IC50 (µM)
Lab book: enter the figure in µM, no units written.

These recorded examples may help you get a feel for the data.
Cc1cc(=O)n2nnc3cc(Cl)c(Cl)cc3n12 13.9
Cc1cc(=O)n2nnc3ccc(Cl)cc3n12 29.5
Cc1cc2nnn3c(=O)cc(C)n3c2cc1C 46.7
Cc1ccc2c(c1)nnn1c(=O)cc(C)n21 42.6
Cc1cc(=O)n2nnc3cc(C#N)ccc3n12 35.9

// next entry
Challenge: Please provide the recorded IC50 for Cc1cc(=O)n2nnc3cc(Cl)ccc3n12 , tested on MCF7.
Response given: 20.5

###

# Tested on: NCI-H292
# assay.text: Cytotoxicity against human NCI-H292 cells after overnight incubation by MTT assay
# Type: functional, cell-based
measured.parameter: IC50

The following molecules have reported results that may help.
Cc1ccc2c(c1)nnn1c(=O)cc(C)n21 25.1 µM
Cc1cc(=O)n2nnc3ccc(Cl)cc3n12 25.1 µM
Cc1cc(=O)n2nnc3cc(C#N)ccc3n12 43.6 µM
Cc1cc2nnn3c(=O)cc(C)n3c2cc1C 23.4 µM
Cc1cc(=O)n2nnc3cc(Cl)c(Cl)cc3n12 28.2 µM
Cc1cc(=O)n2nnc3cc(C(F)(F)F)ccc3n12 > 100 µM

Please find the next molecule below.
Challenge: I am curious: what IC50 value has been reported for Cc1cc(=O)n2nnc3cc(Cl)ccc3n12 ?
Response given: 23.4 µM

###

# System: SNB-75
# assay.text: Cytotoxicity against human SNB75 cells assessed as growth at 10 uM after 48 hrs by sulforhodamine B assay
# Format: functional
# measurement.conditions: SNB-75, 48 h, read-out: Activity
Collected growth at 10 µM values appear next to each entry.
Quick note: unit goes after the number.

Consider the worked cases shown below.
Cc1cc(=O)n2nnc3cc(C(F)(F)F)ccc3n12 116%
Cc1cc(=O)n2nnc3cc(C#N)ccc3n12 96%
Cc1cc2nnn3c(=O)cc(C)n3c2cc1C 89%

Consider now this further compound.
Challenge: Could you share which growth at 10 µM value was measured for Cc1cc(=O)n2nnc3cc(Cl)c(Cl)cc3n12 ?
Response given: 96%
